# ASSAY NAME: yeast display, Sf9 membrane polyspecificity reagent, FACS + sequencing; frameworks hold sequencing errors

{"columns": ["CHAIN SEQUENCE", "polyreactivity (PSR sort gate)"],
 "data": [
  ["QVQLVESGGGLVQAGGSLRLSCAASGRILDANDMGWYRQAPGKERELVAGINSGGSTYYADSVKGRFTISRDNAKNTVYLQMNSLKPEDTAVYYCAAGGVSAKYDYWGQGTQVTVSS", "low polyreactivity"],
  ["QVQLVESGGGLVQAGGILRLSCAASGRTFGGNAIGWYRQAPGKERELVAAITVSAGHTYYADSVKGRFTISRDNAKNTVYLQMNSLKPEDTAVYYCAAGVPYYWSYVWKHPRFDHWGQGTQVTVSS", "low polyreactivity"]
]}
